meta.source: ChEMBL document CHEMBL3397027

In this section we review reported Ratio IC50 values for a set of molecules.
# Organism: Rattus norvegicus
# assay_comment: Selectivity index, ratio of IC50 for rat serum BuChE to IC50 for AChE from rat cortex homogenate
# Type: cell-free
// no unit, no text: just the number

CCN(CCCCCCNC(=O)c1cc(=O)c2c(O)cc(OC)cc2o1)Cc1ccccc1 31.5
CCN(CCCCCCNC(=O)c1cc(=O)c2c(O)cc(OC)cc2o1)Cc1ccccc1OC 217
CCN(CCCCNC(=O)c1cc(=O)c2c(O)cc(OC)cc2o1)Cc1ccccc1 71
CCN(CCCCNC(=O)c1cc(=O)c2c(O)cc(O)cc2o1)Cc1ccccc1OC 127
CCN(CCCCNC(=O)c1cc(=O)c2c(O)cc(OC)cc2o1)Cc1ccccc1OC 262

// returns reported Ratio IC50 for input COc1ccccc1CN(C)CCCCNC(=O)c1cc(=O)c2c(O)cccc2o1
40.1

// returns reported Ratio IC50 for input COc1cc(O)c2c(=O)cc(C(=O)NCCCCN(C)Cc3ccccc3)oc2c1
17.9

// returns reported Ratio IC50 for input COc1cc(O)c2c(=O)cc(C(=O)NCCCN(C)Cc3ccccc3OC)oc2c1
42.5

// returns reported Ratio IC50 for input CCN(CCCCNC(=O)c1cc(=O)c2c(O)cc(OC)cc2o1)Cc1ccccc1N(C)C
239

---

In this section we review reported inhibition values for a set of compounds.
# system: Amyloid-beta precursor protein (Homo sapiens) (UniProt P05067)
# Sequence (P05067 whole entry): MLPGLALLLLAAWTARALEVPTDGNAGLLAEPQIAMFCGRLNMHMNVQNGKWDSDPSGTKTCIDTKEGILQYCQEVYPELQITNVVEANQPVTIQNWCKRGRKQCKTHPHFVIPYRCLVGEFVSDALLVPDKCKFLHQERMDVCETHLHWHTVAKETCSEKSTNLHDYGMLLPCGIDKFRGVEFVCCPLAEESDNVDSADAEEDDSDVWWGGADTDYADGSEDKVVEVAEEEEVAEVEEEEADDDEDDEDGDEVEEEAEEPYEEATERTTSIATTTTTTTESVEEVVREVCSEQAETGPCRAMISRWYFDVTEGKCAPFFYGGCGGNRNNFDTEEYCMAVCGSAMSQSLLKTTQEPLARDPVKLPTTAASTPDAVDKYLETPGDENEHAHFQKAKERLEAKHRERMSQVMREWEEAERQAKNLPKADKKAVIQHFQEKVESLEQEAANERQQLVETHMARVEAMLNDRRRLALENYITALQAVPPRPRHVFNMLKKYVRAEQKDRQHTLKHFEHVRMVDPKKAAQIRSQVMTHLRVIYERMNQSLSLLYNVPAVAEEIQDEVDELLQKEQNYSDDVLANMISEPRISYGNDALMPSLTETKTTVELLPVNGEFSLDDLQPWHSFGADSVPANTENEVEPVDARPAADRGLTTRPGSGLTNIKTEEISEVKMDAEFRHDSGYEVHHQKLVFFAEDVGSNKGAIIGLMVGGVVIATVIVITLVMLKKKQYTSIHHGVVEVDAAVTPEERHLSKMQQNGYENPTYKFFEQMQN
# assay_comment: Inhibition of Cu2+-mediated aggregation of amyloid beta (1-42) (unknown origin) at 25 uM after 24 hrs by thioflavin T fluorescence-based fluorimetric method
State the answer as a number, implicitly in %.

CCN(CCCCNC(=O)c1cc(=O)c2c(O)cc(N(C)C)cc2o1)Cc1ccccc1N(C)C 30.7
CCN(CCCNC(=O)c1cc(=O)c2c(O)cc(OC)cc2o1)Cc1ccccc1OC 27.2
CCN(CCCNC(=O)c1cc(=O)c2c(O)cc(OC)cc2o1)Cc1ccccc1 31.5

GET /values?readout=inhibition&system=Amyloid-beta precursor protein (Homo sapiens) (UniProt P05067)&item= C#CCN(CCCCNC(=O)c1cc(=O)c2c(O)cc(OC)cc2o1)Cc1ccccc1OC
21.5

GET /values?readout=inhibition&system=Amyloid-beta precursor protein (Homo sapiens) (UniProt P05067)&item= COc1cc(O)c2c(=O)cc(C(=O)NCCCN(C)Cc3ccccc3OC)oc2c1
28.7

GET /values?readout=inhibition&system=Amyloid-beta precursor protein (Homo sapiens) (UniProt P05067)&item= COc1ccccc1CN(C)CCCNC(=O)c1cc(=O)c2c(O)cccc2o1
23.8

GET /values?readout=inhibition&system=Amyloid-beta precursor protein (Homo sapiens) (UniProt P05067)&item= CCN(CCCCCCNC(=O)c1cc(=O)c2c(O)cc(O)cc2o1)Cc1ccccc1OC
28.7

GET /values?readout=inhibition&system=Amyloid-beta precursor protein (Homo sapiens) (UniProt P05067)&item= COc1cc(/C=C/C(=O)CC(=O)/C=C/c2ccc(O)c(OC)c2)ccc1O
58

---

# system: Amyloid-beta precursor protein (Homo sapiens) (UniProt P05067)
# assay_comment: Inhibition of self-mediated aggregation of amyloid beta (1-42) (unknown origin) at 25 uM after 24 hrs by thioflavin T fluorescence-based fluorimetric method
measured_endpoint: inhibition (%)
State the answer as a number, implicitly in %.

CCN(CCCCNC(=O)c1cc(=O)c2c(O)cc(OC)cc2o1)Cc1ccccc1 39

// returns reported inhibition for input CCN(CCCCNC(=O)c1cc(=O)c2c(O)cc(O)cc2o1)Cc1ccccc1OC
37.8

// returns reported inhibition for input COc1ccccc1CN(C)CCCNC(=O)c1cc(=O)c2c(O)cccc2o1
50.6

// returns reported inhibition for input COc1cc(O)c2c(=O)cc(C(=O)NCCCCCCN(C)Cc3ccccc3)oc2c1
33.5

// returns reported inhibition for input CCN(CCCNC(=O)c1cc(=O)c2c(O)cc(OC)cc2o1)Cc1ccccc1
21.1

---

# assay_comment: Antioxidant activity assessed as AAPH scavenging activity measured as trolox equivalent at 5 uM after 15 mins by ORAC-FL method relative to control
# Format: physicochemical
# conditions: 0.25 h
measured_endpoint: fold change (FC)
// no unit, no text: just the number

Please review the following examples before continuing.
CCN(CCCCNC(=O)c1cc(=O)c2c(O)cc(OC)cc2o1)Cc1ccccc1 0.65
COc1ccccc1CN(C)CCCCNC(=O)c1cc(=O)c2c(O)cccc2o1 0.81
COc1cc(O)c2c(=O)cc(C(=O)NCCCN(C)Cc3ccccc3)oc2c1 0.46
COc1cc(O)c2c(=O)cc(C(=O)NCCCCN(C)Cc3ccccc3)oc2c1 0.79
CCN(CCCCNC(=O)c1cc(=O)c2c(O)cc(OC)cc2o1)Cc1ccc(N(C)C)cc1 2.2
CN(C)c1cc(O)c2c(=O)cc(C(=O)O)oc2c1 0.95
COc1cc(O)c2c(=O)cc(C(=O)NCCCCN3CCOc4ccccc4C3)oc2c1 0.68
CCOC(=O)c1cc(=O)c2c(O)cccc2o1 0.78

// returns reported fold change (FC) for input CCN(CCCCNC(=O)c1cc(=O)c2c(O)cc(N(C)C)cc2o1)Cc1ccccc1OC
1.05

// returns reported fold change (FC) for input CCN(CCCCNC(=O)c1cc(=O)c2c(O)cc(N(C)C)cc2o1)Cc1ccccc1N(C)C
1.34

// returns reported fold change (FC) for input CN(CCCNC(=O)c1cc(=O)c2c(O)cccc2o1)Cc1ccccc1
0.85

// returns reported fold change (FC) for input C#CCN(CCCCNC(=O)c1cc(=O)c2c(O)cc(OC)cc2o1)Cc1ccccc1OC
0.56

// returns reported fold change (FC) for input CCN(CCCCNC(=O)c1cc(=O)c2c(O)cc(OC)cc2o1)Cc1ccccc1OC
0.62

// returns reported fold change (FC) for input CCN(CCCCNC(=O)c1cc(=O)c2c(O)cc(OC)cc2o1)Cc1ccccc1N(C)C
0.97

// returns reported fold change (FC) for input CCN(CCCCCCNC(=O)c1cc(=O)c2c(O)cc(OC)cc2o1)Cc1ccccc1
0.65

// returns reported fold change (FC) for input CCN(CCCNC(=O)c1cc(=O)c2c(O)cc(O)cc2o1)Cc1ccccc1OC
2.1

// returns reported fold change (FC) for input CCN(CCCNC(=O)c1cc(=O)c2c(O)cccc2o1)Cc1ccccc1OC
1.13

---

# system: Amyloid-beta precursor protein (Homo sapiens) (UniProt P05067)
# assay_comment: Inhibition of Cu2+-mediated aggregation of amyloid beta (1-42) (unknown origin) at 25 uM after 24 hrs by thioflavin T fluorescence-based fluorimetric method
In this section we review reported inhibition values for a set of molecules.
State the answer as a number, implicitly in %.

CCN(CCCCCCNC(=O)c1cc(=O)c2c(O)cc(OC)cc2o1)Cc1ccccc1OC 52

// returns reported inhibition for input COc1cc(O)c2c(=O)cc(C(=O)NCCCCCCN(C)Cc3ccccc3OC)oc2c1
48.1

// returns reported inhibition for input CCN(CCCCNC(=O)c1cc(=O)c2c(O)cccc2o1)Cc1ccccc1OC
48.3

// returns reported inhibition for input CCN(CCCCCCNC(=O)c1cc(=O)c2c(O)cc(OC)cc2o1)Cc1ccccc1
42.6

// returns reported inhibition for input CCN(CCCCNC(=O)c1cc(=O)c2c(O)cc(OC)cc2o1)Cc1ccccc1
34.1

---

# system: Amyloid-beta precursor protein (Homo sapiens) (UniProt P05067)
# assay_comment: Inhibition of Cu2+-mediated aggregation of amyloid beta (1-42) (unknown origin) at 25 uM after 24 hrs by thioflavin T fluorescence-based fluorimetric method
measured_endpoint: inhibition (%)
State the answer as a number, implicitly in %.

GET /values?readout=inhibition&system=Amyloid-beta precursor protein (Homo sapiens) (UniProt P05067)&item= CCN(CCCNC(=O)c1cc(=O)c2c(O)cc(O)cc2o1)Cc1ccccc1OC
18.1

GET /values?readout=inhibition&system=Amyloid-beta precursor protein (Homo sapiens) (UniProt P05067)&item= CCN(CCCCNC(=O)c1cc(=O)c2c(O)cc(O)cc2o1)Cc1ccccc1OC
32.1

GET /values?readout=inhibition&system=Amyloid-beta precursor protein (Homo sapiens) (UniProt P05067)&item= CN(CCCNC(=O)c1cc(=O)c2c(O)cccc2o1)Cc1ccccc1
25.8

GET /values?readout=inhibition&system=Amyloid-beta precursor protein (Homo sapiens) (UniProt P05067)&item= COc1ccccc1CN(C)CCCCNC(=O)c1cc(=O)c2c(O)cccc2o1
24.1

GET /values?readout=inhibition&system=Amyloid-beta precursor protein (Homo sapiens) (UniProt P05067)&item= COc1cc(O)c2c(=O)cc(C(=O)NCCCCN3CCOc4ccccc4C3)oc2c1
35

GET /values?readout=inhibition&system=Amyloid-beta precursor protein (Homo sapiens) (UniProt P05067)&item= CCN(CCCCNC(=O)c1cc(=O)c2c(O)cc(OC)cc2o1)Cc1ccc(N(C)C)cc1
28.8

GET /values?readout=inhibition&system=Amyloid-beta precursor protein (Homo sapiens) (UniProt P05067)&item= COc1cc(O)c2c(=O)cc(C(=O)NCCCCN(C)Cc3ccccc3)oc2c1
35.3

GET /values?readout=inhibition&system=Amyloid-beta precursor protein (Homo sapiens) (UniProt P05067)&item= CCN(CCCCNC(=O)c1cc(=O)c2c(O)cc(N(C)C)cc2o1)Cc1ccccc1OC
36.9

GET /values?readout=inhibition&system=Amyloid-beta precursor protein (Homo sapiens) (UniProt P05067)&item= CCN(CCCCNC(=O)c1cc(=O)c2c(O)cc(OC)cc2o1)Cc1ccccc1N(C)C
20

GET /values?readout=inhibition&system=Amyloid-beta precursor protein (Homo sapiens) (UniProt P05067)&item= COc1cc(O)c2c(=O)cc(C(=O)NCCCCCCN(C)Cc3ccccc3)oc2c1
37.1
